- System: JAK1-dependent STAT6 phosphorylation downstream of IL-13 stimulation in TF-1 human erythroleukemia cells
- Test: JAK1 pathway assay in TF-1 cells (IL-13-pSTAT6, MSD)
- Type: cell-based
- Measurement Setup: Homo sapiens, TF-1, TF-1 cells, read-out: IL13-pSTAT6 EC50_TF-1
- Method: JAK1 Pathway Assay in Cell Lines was Carried Out as Follows: Inhibitor potency (EC50) was determined in cell-based assays designed to measure JAK1 dependent STAT phosphorylation. […] Test compounds were serially diluted 1:2 in DMSO and then diluted 1:50 in medium just before use. […] Then, cells were stimulated with human recombinant cytokine at their respective EC90 concentrations, as previously determined for each individual lot. […]
Reported Metric: EC50 (nM)
Report the value in nM with no unit label.

Some solved cases for reference:
> print(dat)
                                smiles.repr  numeric.value
1  CN1CCN(C(=O)c2ccc(-c3nc(-c4cc(Cl)ccc4OC(F)F)c(NC(=O)c4cnn5cccnc45)s3)cc2)CC1             13
2  O=C(Nc1cn(CC(=O)N2C[C@H]3CN(CCCOC(=O)C4CCC4)C[C@H]3C2)nc1-c1cc(Cl)ccc1OC(F)F)c1cnn2cccnc12             21
3  CN1CC[C@H](n2cc(NC(=O)c3c(N)nn4cccnc34)c(-c3cc(Cl)ccc3OC(F)F)n2)C1            8.9
4  CN1CCC2(CC1)CCN(C(=O)Cn1cc(NC(=O)c3cnn4cccnc34)c(-c3cc(Cl)ccc3OC(F)F)n1)C2           28.9

// moving on: another record for EC50
Ask: Item under review: CN1CCN(CCCN2CCC(n3cc(NC(=O)c4c(N)nn5cccnc45)c(-c4cc(Cl)ccc4OC(F)F)n3)CC2)C1=O . Reported EC50?
Result: 5.6
